- System: HL-60(TB) leukemia
- METHOD: NCI tumour cell line growth inhibition, 48 h
RECORDED_METRIC: TGI

[
  {
    "SMILES_STRING": "CC(=O)N=C1N(/C=C2\\C(=O)Oc3ccccc3C2=O)C(=O)/C(=C/c2ccc(NC(C)=O)cc2)N1C",
    "SYSTEM": "HL-60(TB) leukemia",
    "TGI": "> 100 µM"
  },
  {
    "SMILES_STRING": "O=C(O)C(Cl)(c1ccccc1)c1ccccc1",
    "SYSTEM": "HL-60(TB) leukemia",
    "TGI": "> 100 µM"
  }
]

Consider now this further molecule.
Exam item: Observed TGI on HL-60(TB) leukemia for O=C(N/N=C(/COc1ccc([N+](=O)[O-])cc1)N=Cc1ccncc1)c1ccncc1 , please.
Marked response: > 100 µM
